procedure text: Cytotoxicity test on Vero E6 cells by CCK8 kit
Format: cell-based
test settings: African green monkey
CC50 values for the compounds below.
property name: CC50

> print(dat)
                                    compound  reported.result
 1  COc1cc2c3cc1Oc1c(OC)c(OC)cc4c1[C@@H](Cc1ccc(C(=O)Nc5cccnc5)c(c1)Oc1ccc(cc1)C[C@@H]3N(C)CC2)N(C)CC4          26.4 µM
 2  COc1cc2c3cc1Oc1c(OC)c(OC)cc4c1[C@@H](Cc1ccc(C(=O)N5CCCCC5)c(c1)Oc1ccc(cc1)C[C@@H]3N(C)CC2)N(C)CC4          24.6 µM
 3  COc1cc2c3cc1Oc1c(OC)c(OC)cc4c1[C@@H](Cc1ccc(C(=O)C5CC5)c(c1)Oc1ccc(cc1)C[C@@H]3N(C)CC2)N(C)CC4          13.7 µM
 4  COc1cc2c3cc1Oc1c(OC)c(OC)cc4c1[C@@H](Cc1ccc(C(C)O)c(c1)Oc1ccc(cc1)C[C@@H]3N(C)CC2)N(C)CC4 (stereo partly drawn)          29.7 µM
 5  COc1cc2c3cc1Oc1c(OC)c(OC)cc4c1[C@@H](Cc1ccc(C(=O)Nc5ccccc5)c(c1)Oc1ccc(cc1)C[C@@H]3N(C)CC2)N(C)CC4          10.2 µM
 6  COc1cc2c3cc1Oc1c(OC)c(OC)cc4c1[C@@H](Cc1ccc(C)c(c1)Oc1ccc(cc1)C[C@@H]3N(C)CC2)N(C)CC4          10.2 µM
 7  COC(=O)c1ccc2cc1Oc1ccc(cc1)C[C@H]1c3cc(c(OC)cc3CCN1C)Oc1c(OC)c(OC)cc3c1[C@@H](C2)N(C)CC3          31.4 µM
 8  COc1cc2c3cc1Oc1c(OC)c(OC)cc4c1[C@@H](Cc1ccc(C(=O)NCCOCCO)c(c1)Oc1ccc(cc1)C[C@@H]3N(C)CC2)N(C)CC4           123 µM
 9  COc1cc2c3cc1Oc1c(OC)c(OC)cc4c1[C@@H](Cc1ccc(C(C)=O)c(c1)Oc1ccc(cc1)C[C@@H]3N(C)CC2)N(C)CC4          29.4 µM
10  COc1cc2c3cc1Oc1c(OC)c(OC)cc4c1[C@@H](Cc1ccc(C5CC5)c(c1)Oc1ccc(cc1)C[C@@H]3N(C)CC2)N(C)CC4          10.8 µM
11  COc1cc2c3cc1Oc1c(OC)c(OC)cc4c1[C@@H](Cc1cc(cc([N+](=O)[O-])c1)Oc1ccc(cc1)C[C@@H]3N(C)CC2)N(C)CC4          24.3 µM
12  COc1cc2c3cc1Oc1c(OC)c(OC)cc4c1[C@@H](Cc1ccc(C(=O)NC5CC5)c(c1)Oc1ccc(cc1)C[C@@H]3N(C)CC2)N(C)CC4          62.3 µM

---

procedure text: Cytotoxicity test on Vero E6 cells by CCK8 kit
Assay type: cell-based
test settings: African green monkey
CC50 values for the molecules below.
property name: CC50 (µM)

> print(dat)
                                   molecule  quantity.unit  reported.result
1  COc1ccc(NC(=O)c2ccc3cc2Oc2ccc(cc2)C[C@H]2c4cc(c(OC)cc4CCN2C)Oc2c(OC)c(OC)cc4c2[C@@H](C3)N(C)CC4)cc1 [Compound 59]             µM             10.6
2  CCCCNC(=O)Oc1ccc2cc1Oc1ccc(cc1)C[C@H]1c3cc(c(OC)cc3CCN1C)Oc1c(OC)c(OC)cc3c1[C@@H](C2)N(C)CC3 [Compound 4]             µM             31.5
3  C=C(C)c1ccc2cc1Oc1ccc(cc1)C[C@H]1c3cc(c(OC)cc3CCN1C)Oc1c(OC)c(OC)cc3c1[C@@H](C2)N(C)CC3 [Compound 40]             µM             11.7
4  CCCCNC(=O)Oc1c(OC)cc2c3c1Oc1cc4c(cc1OC)CCN(C)[C@H]4Cc1ccc(cc1)Oc1cc(ccc1OC)C[C@H]3N(C)CC2 [Compound 53]             µM             22.2
5  COc1cc2c3cc1Oc1c(OC)c(OC)cc4c1[C@@H](Cc1ccc(OC(=O)CCCC[C@H]5CCSS5)c(c1)Oc1ccc(cc1)C[C@@H]3N(C)CC2)N(C)CC4 [Compound 5]             µM              172
6  COc1cc2c3cc1Oc1c(OC)c(OC)cc4c1[C@@H](Cc1ccc(C#N)c(c1)Oc1ccc(cc1)C[C@@H]3N(C)CC2)N(C)CC4 [Compound 1]             µM             25.6
